- testedOn: T1, EsCas13d, nuclease-dead (Eubacterium siraeum, UniProt B0MS50, R295A;H300A;R849A;H854A)
- T1 sequence: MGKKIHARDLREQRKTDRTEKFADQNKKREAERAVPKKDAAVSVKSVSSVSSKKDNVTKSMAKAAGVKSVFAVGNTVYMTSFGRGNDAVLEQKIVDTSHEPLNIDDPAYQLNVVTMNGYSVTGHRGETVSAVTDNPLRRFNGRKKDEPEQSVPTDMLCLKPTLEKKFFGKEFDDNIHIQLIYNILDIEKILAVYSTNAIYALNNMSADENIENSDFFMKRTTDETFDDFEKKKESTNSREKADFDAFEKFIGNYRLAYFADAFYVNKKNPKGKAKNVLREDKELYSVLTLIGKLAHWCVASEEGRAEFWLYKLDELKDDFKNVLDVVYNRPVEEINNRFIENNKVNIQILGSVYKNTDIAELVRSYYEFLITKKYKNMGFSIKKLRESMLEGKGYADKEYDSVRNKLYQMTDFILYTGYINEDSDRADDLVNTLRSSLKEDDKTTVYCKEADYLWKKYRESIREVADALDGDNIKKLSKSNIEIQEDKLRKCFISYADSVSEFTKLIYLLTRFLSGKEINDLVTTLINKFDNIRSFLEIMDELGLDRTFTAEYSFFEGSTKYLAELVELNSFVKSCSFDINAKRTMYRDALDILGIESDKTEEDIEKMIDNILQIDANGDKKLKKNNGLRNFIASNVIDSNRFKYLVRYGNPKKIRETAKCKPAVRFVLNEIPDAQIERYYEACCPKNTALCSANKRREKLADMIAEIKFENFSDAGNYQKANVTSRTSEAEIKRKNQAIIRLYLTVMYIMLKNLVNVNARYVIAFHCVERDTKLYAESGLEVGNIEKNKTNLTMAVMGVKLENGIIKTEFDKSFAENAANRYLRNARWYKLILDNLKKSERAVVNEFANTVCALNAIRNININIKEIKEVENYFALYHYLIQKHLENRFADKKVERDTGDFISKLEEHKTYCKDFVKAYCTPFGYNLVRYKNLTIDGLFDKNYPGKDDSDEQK
- assayInfo: crRNA (strand 1, pre-loaded); Mg2+; 40 mM Tris-HCl pH 7.5, 150 mM NaCl, 6 mM MgCl2, 1 mM DTT, 0.1% Tween-20, 0.2 mg/ml BSA; 25 C; 10 min per concentration, then washed
- conditionLabel: tags: His6-TwinStrep-SUMO cleaved; N-terminal SNAP kept (SNAP-Surface 488); label: 3' end held by stalled T7 RNA polymerase
propertyLabel: Kd (nM)
I only need the number, in nM, no unit after it.

Q) Please look up its Kd: target 3 insA 3' of 21,insA 3' of 6 (mixed) RNA 1: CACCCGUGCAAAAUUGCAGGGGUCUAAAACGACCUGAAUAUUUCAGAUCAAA RNA 2: GGGAAUGGAUCCACAUCUACGAAUUCGUUUUAUGAUCUGAAAUAUUCAAGGUCUGCAGAUCGGAAGAGCACACGU
A) 38.4
